experiment: MM1S myeloma cell viability, profiling panel, resazurin fluorescence, basal, 24 h, PK04 Diversity Set (AID 1174); conditions: higher = more signal, called active from +8 up or from −8 down;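 also: MM1S multiple myeloma cell line; test concentration not given here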
MEASURED QUANTITY: z-score
Could you keep your reply to the number by itself?

In: Given the compound "CC(=O)OC[C@H]1O[C@H](CC=NO[C@H](C)c2cn([C@@H]3COC[C@H]3O)nn2)C=C[C@@H]1OC(C)=O" , what is its reported z-score?
Out: 0.134

In: Also "C#CCCCON=C1C[C@@H](O)[C@@H](O)[C@@H]2[C@@H]3C(=O)N(C4CCCCC4)C(=O)[C@@H]3CC[C@@H]12" ?
Out: -0.0738

In: Now try "COc1cccc([C@H](O)Cn2cc(-c3ccc(CON=C(C)C)cc3)nn2)c1" .
Out: -0.307

In: Input "CCN1C(=O)[C@H]2[C@@H]3C(=CC[C@H]2C1=O)C(=O)[C@H]1O[C@H]1[C@H]3O"
Out: -5.38

In: Consider next the compound "CON=C1c2cc(OC)ccc2O[C@H](c2cccc(OC)c2)[C@H]1O" in the same way.
Out: 0.322

In: Same question, CCN1C(=O)[C@H]2[C@H]3[C@H](O)[C@H](O)CC(=NOC(C)CN4CCCc5nc(C)c(C)cc54)[C@@H]3CC[C@H]2C1=O (stereo partly specified) this time
Out: -2

In: Now try "COc1ccc(O[C@H]2C=C[C@@H](c3ccccc3)O[C@@H]2COC(=O)CCC(C)=NOC[C@@H](O)COCc2ccco2)cc1" .
Out: -1.11

In: # repeat for "O=C1C=C[C@@H](O)[C@@H]2[C@@H]3C(=O)N(Cc4ccccc4)C(=O)[C@@H]3CC[C@@H]12"
Out: 0.183

In: Try the compound "COc1ccc(COC(=O)NN=C2C[C@@H](O)[C@@H](O)[C@@H]3[C@@H]4C(=O)N([C@@H](C)c5ccccc5)C(=O)[C@@H]4CC[C@@H]23)cc1"
Out: -0.525

In: Next entry: "CC#CCOCCC=C1c2ccccc2[C@@H](OC)[C@@H]1C"
Out: -0.725

In: Cool, now "C=CC[C@@H]1C=C[C@H](ON=C(C)CCN2CCCCc3nc(C)c(C)cc32)[C@@H](CO)O1"
Out: -0.201

In: Similarly, CCOC(=O)[C@H](Cc1ccccc1)NC(=O)CCC1CC(OC(=O)NCCc2ccc(F)cc2)CC2(CCCC(COC(=O)NCc3cccc(C(F)(F)F)c3)O2)O1 (stereo partly specified) ?
Out: 0.853

In: Another compound to check: "Cc1ccc(C(C)C)n1C(=O)OC(C)(C)C"
Out: -1.46

In: Queued: COC(=O)C(C(=O)OC)C1CCCC(=O)C1 (stereo unspecified)
Out: -1.14

In: What would you report for "CCN1C(=O)[C@H]2[C@H]3[C@H](O)[C@H](O)CC(=NNC(=O)OCc4ccccc4)[C@H]3CC[C@H]2C1=O" ?
Out: -0.193

In: What do you have for "O=C1[C@H]2[C@H]3[C@H](O)[C@H](O)CC(=NOCc4ccccc4)[C@H]3CC[C@H]2C(=O)N1C1CCCCC1" ?
Out: -0.99

In: Next compound up: "CC(C)=CCCC(C)=CCON=C1C[C@@H](O)[C@@H](O)[C@@H]2[C@@H]3C(=O)N([C@@H](C)c4ccccc4)C(=O)[C@@H]3CC[C@@H]12"
Out: -0.32

In: Let us now turn to CCOC(=O)[C@H](CC(C)C)NC(=O)CCC1CC(OC(=O)NCCc2ccc(F)cc2)CC2(CCCC(COC(=O)NCc3cccc4ccccc34)O2)O1 (stereo partly specified)
Out: 1.28

In: Another: "Cc1ccc(S(=O)(=O)N[C@@H]2COC(=O)CC=C[C@@H](C)[C@H](NS(=O)(=O)c3ccc(C)cc3)COC(=O)[C@H](C)NC(=O)CC=C[C@H]2C)cc1"
Out: 0.341

In: Then "CCCNC(=O)OC[C@H]1O[C@H](CCON=C2C[C@@H](O)[C@@H](O)[C@@H]3[C@@H]4C(=O)N(CC)C(=O)[C@@H]4CC[C@@H]23)C=C[C@@H]1Oc1ccc(OC)cc1" ?
Out: -0.791

In: Similarly, CCOC(=O)[C@H](CC(C)C)NC(=O)CCC1CC(OC(=O)NCc2ccc3c(c2)OCO3)CC2(CCCC(COC(=O)NCCC(C)C)O2)O1 (stereo partly specified) ?
Out: 1.03

In: Now this one: CCOC(=O)[C@H](Cc1ccccc1)NC(=O)CCC1CC(OC(=O)NCc2cccc3ccccc23)CC2(CCCC(COC(=O)NCc3ccc4c(c3)OCO4)O2)O1 (stereo partly specified)
Out: -0.082

In: Query COC(=O)[C@H](C)NC(=O)CCC1CC(OC(=O)NCCc2ccc(F)cc2)CC2(CCCC(COC(=O)NCCOc3ccccc3)O2)O1 (stereo partly specified) next
Out: 0.177

In: Do the same for CCc1cc2c(nc1CC)CCN(CCC(C)=NOC(C)CN1CCCCc3nc(C)c(C)cc31)C2 (stereo unspecified) please
Out: 0.0376

In: Request: "CON=C(C)CCN1CCCCc2nc(C)c(C)cc21"
Out: 0.183

In: Please do the same for O=C(NCCC[N+]1=CC=NC1c1ccccc1)N1CCCc2nc(-c3ccc(Br)cc3)ccc21 (stereo unspecified) as well.
Out: -1.04

In: Param item: "CC(=O)OC[C@H]1O[C@H](CC=NOC[C@@H](O)[C@H]2O[C@@H]3OC(C)(C)O[C@@H]3[C@H]2O)C=C[C@@H]1OC(C)=O"
Out: -1.15

In: Query "COc1ccc(-c2cnnc(CCCn3ccnc3-c3ccccc3)n2)cc1" next
Out: -0.891

In: Do the same for CC(C)=NOC(C)CN1CCCCc2nc(C)c(C)cc21 (stereo unspecified) please
Out: -0.408

In: Try this compound too: "CC(CCN1CCc2nc(-c3ccccc3)c(-c3ccccc3)cc2C1)=NO[C@@H](C)c1cc(-c2c(C)cc(C)cc2C)no1"
Out: 0.553

In: Now consider "CC(CCN1CCc2nc(-c3ccccc3)c(-c3ccccc3)cc2C1)=NO[C@H](C)c1cn([C@H](CO)Cc2ccccc2)nn1" .
Out: 0.474

====

For each entry below, report its z-score value.
assay: E. coli acrAB mutant growth effects, primary screen, E. coli filamentation inducers, strain DRC39, OD650, 24 h (AID 1178); details: higher = more signal, called active from +8 up or from −8 down;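 also: growth measured as culture turbidity by optical density at 650 nm; test concentration not given here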
Reply: number alone, nothing else.

In: Look at this molecule and give its reported z-score. "C=CC[C@@H]1C=C[C@H](ON=C[C@@H](NS(=O)(=O)c2ccc(C)cc2)[C@H](C)C=CCC(=O)OC)[C@@H](CO)O1"
Out: -0.251

In: Would you mind doing "COc1ccc(COC(=O)NN=C2C[C@@H](O)[C@@H](O)[C@@H]3[C@@H]4C(=O)N(C[C@@H]5CCCO5)C(=O)[C@@H]4CC[C@@H]23)cc1" as well?
Out: 1.02

In: Entry O=C(NCCC[N+]1=CC=NC1c1ccccc1)N1CCCc2nc(-c3ccc(Br)cc3)ccc21 (centres undefined) please
Out: 1.11

In: And what about the molecule "CC(=O)OC[C@H]1O[C@@H](ON=C(C)CCN2CCCCc3nc(C)c(C)cc32)[C@H](OC(C)=O)[C@@H](OC(C)=O)[C@@H]1OC(C)=O" ?
Out: -1.24

In: Now try "CC(=O)OC[C@H]1O[C@H](C#CCCc2ccccc2)C=C[C@@H]1OC(C)=O" .
Out: 0.551

In: Next molecule up: CCOC(=O)[C@H](Cc1ccccc1)NC(=O)CCC1CC(OC(=O)NCCc2ccc(F)cc2)CC2(CCCC(COC(=O)NCc3cccc(C(F)(F)F)c3)O2)O1 (some centres undefined)
Out: 0.141

In: // repeat for COc1ccc(OC[C@@H]2CC3[C@@H](c4ccc(Br)cc4)[C@H](C)CC[C@H]3C(=O)O2)cc1 (some centres undefined) and report
Out: -0.941

In: Next record, please: "CCOC(=O)NN=C1C[C@@H](O)[C@@H](O)[C@@H]2[C@@H]3C(=O)N(C[C@@H]4CCCO4)C(=O)[C@@H]3CC[C@H]12"
Out: 0.213

In: How about this molecule: "CC(CCC(=O)OC[C@H]1O[C@H](C#Cc2ccccc2)C=C[C@@H]1Oc1ccc(C)cc1)=NO[C@@H](C)c1cc(-c2c(C)cc(C)cc2C)no1"
Out: -0.135

In: Request: "CC(C)(C)N1C(=O)[C@H]2[C@@H]3C(=CC[C@H]2C1=O)C(=O)[C@H]1O[C@H]1[C@H]3O"
Out: -0.662

In: Can you handle "O=C1[C@H]2[C@H]3[C@H](O)[C@H](O)CC(=NO[C@@H]4O[C@H](CO)[C@@H](O)[C@H](O)[C@H]4O)[C@H]3CC[C@H]2C(=O)N1c1ccc(F)cc1F" next?
Out: 0.166

In: Now the molecule "COC(=O)[C@H](Cc1ccccc1)NC(=O)[C@@H](C)CO"
Out: -1.48

In: Same thing, different molecule: "O=C1[C@H]2[C@H]3[C@H](O)[C@H](O)CC(=NO[C@@H]4O[C@H](CO)[C@@H](O)[C@H](O)[C@H]4O)[C@@H]3CC[C@H]2C(=O)N1C1CCCCC1"
Out: -0.0163

In: Also check COC(=O)CC=C[C@@H](C)[C@@H](C=NOC(C)CN1CCCCc2nc(C)c(C)cc21)NS(=O)(=O)c1ccc(C)cc1 (some centres undefined)
Out: 0.424
